Listed here: items and their measured MIC.
# Test system: Staphylococcus aureus
# ASSAY EXPLANATION: Antibacterial activity against methicillin-resistant Staphylococcus aureus isolate AG 039 by broth microdilution assay
# Format: functional
QUANTITY NAME: MIC

SMILES DATA	QUANTITY NAME	VALUE OBSERVED
NC[C@@H]1O[C@H](O[C@H]2[C@@H](O)[C@H](O[C@@H]3[C@@H](O)[C@H](N)C[C@H](N)[C@H]3O[C@H]3O[C@H](CO)[C@@H](O[C@H]4O[C@H](CO)[C@@H](N)[C@H](O)[C@H]4O)[C@H](O)[C@H]3N)O[C@@H]2CO)[C@H](N)[C@@H](O)[C@@H]1O	MIC	8 µg/mL
NC[C@@H]1O[C@H](O[C@H]2[C@@H](O)[C@H](O[C@@H]3[C@@H](O)[C@H](N)C[C@H](N)[C@H]3O[C@H]3O[C@H](CO)[C@@H](O[C@@H]4O[C@H](CO)[C@@H](O)[C@H](O)[C@@H]4O)[C@H](O)[C@H]3N)O[C@@H]2CO)[C@H](N)[C@@H](O)[C@@H]1O	MIC	≥ 128 µg/mL
NC[C@@H]1O[C@H](O[C@H]2[C@@H](O)[C@H](O[C@@H]3[C@@H](O)[C@H](N)C[C@H](N)[C@H]3O[C@H]3O[C@H](CO)[C@@H](O[C@@H]4O[C@H](CO)[C@@H](O)[C@H](O)[C@H]4O)[C@H](O)[C@H]3N)O[C@@H]2CO)[C@H](N)[C@@H](O)[C@@H]1O	MIC	≥ 128 µg/mL
NC[C@@H]1O[C@H](O[C@H]2[C@@H](O)[C@H](O[C@@H]3[C@@H](O)[C@H](N)C[C@H](N)[C@H]3O[C@H]3O[C@H](CO)[C@@H](O[C@@H]4O[C@H](CO)[C@@H](N)[C@H](O)[C@H]4O)[C@H](O)[C@H]3N)O[C@@H]2CO)[C@H](N)[C@@H](O)[C@@H]1O	MIC	> 64 µg/mL

----------
# TARGET OF ASSAY: Bacterial 70S ribosome
# ASSAY EXPLANATION: Inhibition of Mycobacterium smegmatis ribosome containing wild type ribosomal RNA A-site in rabbit reticulocyte lysates assessed as reduction in ribosome-mediated protein synthesis in presence of S-30 extracts by fire fly luciferase synthesis based cell-free translation assay
pIC50: −log10 of the molar value.
Listed here: items and their measured pIC50.
QUANTITY NAME: pIC50

SMILES DATA	QUANTITY NAME	VALUE OBSERVED
NC[C@@H]1O[C@H](O[C@H]2[C@@H](O)[C@H](O[C@@H]3[C@@H](O)[C@H](N)C[C@H](N)[C@H]3O[C@H]3O[C@H](CO)[C@@H](OCCCc4ccccc4)[C@H](O)[C@H]3N)O[C@@H]2CO)[C@H](N)[C@@H](O)[C@@H]1O	pIC50	6.56
NC[C@@H]1O[C@H](O[C@H]2[C@@H](O)[C@H](O[C@@H]3[C@@H](O)[C@H](N)C[C@H](N)[C@H]3O[C@H]3O[C@H](CO)[C@@H](O[C@H]4O[C@H](CO)[C@@H](O)[C@H](O)[C@H]4O)[C@H](O)[C@H]3N)O[C@@H]2CO)[C@H](N)[C@@H](O)[C@@H]1O	pIC50	6.39

Reference source for all entries: ChEMBL document CHEMBL3588782
